Tested on: Streptococcus
Assay: GAS UMAA2166 growth inhibition – luminescence, BacTiterGlo, counter-screen for streptokinase expression inhibitor project, dose response (AID 1915);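 further: potency for reduction of bacterial viability or growth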
Assay type: functional, organism-based
Activity calls are given as the source filed them.
readout-label: EC50

Solved cases below.
>  <compound>
O=C(NC(=S)NNC(=O)c1ccccc1O)c1ccc(F)cc1

>  <tested-system>
Streptococcus

>  <readout-label>
EC50

>  <result>
7.74 µM (active)

$$$$
>  <compound>
Oc1ccc(CN2CCc3ccccc3C2)c2cccnc12

>  <tested-system>
Streptococcus

>  <readout-label>
EC50

>  <result>
13.8 µM (active)

$$$$
>  <compound>
O=C(Nc1ccc(-c2csc(Nc3ccccc3)n2)cc1)c1cccc(C(F)(F)F)c1

>  <tested-system>
Streptococcus

>  <readout-label>
EC50

>  <result>
> 150 µM (not active)

$$$$
>  <compound>
Clc1cccc(Cl)c1CSc1nnc(/C=C/c2ccccc2)o1

>  <tested-system>
Streptococcus

>  <readout-label>
EC50

>  <result>
> 150 µM (not active)

$$$$
>  <compound>
Cc1[nH]n(-c2ccc(Br)cc2)c(=O)c1/C=N/NC(=O)c1ccccc1

>  <tested-system>
Streptococcus

>  <readout-label>
EC50

>  <result>
1.92 µM (active)

$$$$
>  <compound>
CCCCCCCN1N=C(C)C(C(=O)c2ccccc2)C1=O (configuration not stated)

>  <tested-system>
Streptococcus

>  <readout-label>
EC50

>  <result>
30.9 µM (active)

$$$$

// query Look up EC50 with Streptococcus for this compound: Cc1cc([N+](=O)[O-])cc(/C=N/n2c(C)nc3ccccc3c2=O)c1O
// result 7.71 µM (active)

----------
Target: Cytochrome P450 2C9 (Homo sapiens, UniProt P11712)
Sequence (P11712 whole entry): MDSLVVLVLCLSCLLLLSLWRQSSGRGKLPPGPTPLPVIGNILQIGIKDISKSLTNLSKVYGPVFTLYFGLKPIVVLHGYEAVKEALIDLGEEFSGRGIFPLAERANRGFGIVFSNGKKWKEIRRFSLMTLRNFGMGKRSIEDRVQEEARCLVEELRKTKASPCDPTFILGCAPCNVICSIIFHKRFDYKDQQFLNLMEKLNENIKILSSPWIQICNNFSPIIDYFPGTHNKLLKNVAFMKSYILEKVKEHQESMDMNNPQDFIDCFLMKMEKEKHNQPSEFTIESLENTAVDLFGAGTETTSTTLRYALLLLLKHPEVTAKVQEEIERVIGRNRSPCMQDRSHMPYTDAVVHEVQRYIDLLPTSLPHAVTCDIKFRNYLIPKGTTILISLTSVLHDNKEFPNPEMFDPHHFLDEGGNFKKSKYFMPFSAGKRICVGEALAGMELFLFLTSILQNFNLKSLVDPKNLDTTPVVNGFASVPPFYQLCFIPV
readout-label: AC50

>  <substance-smiles>
CCS(=O)(=O)N1CCC[C@H]2CN3CCc4cc(OC)ccc4[C@@H]3C[C@@H]21

>  <tested-system>
Cytochrome P450 2C9 (Homo sapiens, UniProt P11712)

>  <result>
inconclusive

$$$$
>  <substance-smiles>
Cn1c(=O)c2cc(S(=O)(=O)NCCC(=O)NCCc3ccc(Cl)cc3)ccc2n(C)c1=O

>  <tested-system>
Cytochrome P450 2C9 (Homo sapiens, UniProt P11712)

>  <result>
inconclusive

$$$$
>  <substance-smiles>
O=C(OCC#CCSc1nnc(-c2cccc3ccccc23)o1)c1ccco1

>  <tested-system>
Cytochrome P450 2C9 (Homo sapiens, UniProt P11712)

>  <result>
inconclusive

$$$$

----------
# reported IC50; entries follow
Target: Prothrombin (Bos taurus)
Assay: thrombin protease inhibitors – biochemical, fluorescence polarization, uHTS hits, dose response (AID 602369)
Assay type: functional
Activity calls are given as the source filed them.

Sample records with IC50:
>  <substance-smiles>
CCOc1cc(/C=C2\SC(=S)N(NS(=O)(=O)c3ccc(C)cc3)C2=O)ccc1O

>  <IC50>
30.4 µM (active)

$$$$
>  <substance-smiles>
O=C1c2ccccc2S(=O)(=O)c2cc(N3CCOCC3)ccc21

>  <IC50>
24 µM (active)

$$$$
>  <substance-smiles>
Cc1c(P(=S)(c2ccccc2)c2ccccc2)[n+]2ccccc2n1C

>  <IC50>
62.8 µM (active)

$$$$
>  <substance-smiles>
N=C1/C(=C/c2ccc(-c3cccc(C(=O)O)c3)o2)C(=O)N=C2SC=C(c3ccccc3)N12

>  <IC50>
10.2 µM (active)

$$$$
>  <substance-smiles>
CCc1ccc(NC(=O)CCc2nc3sc4c(c3c(=O)[nH]2)CCCC4)cc1

>  <IC50>
35.9 µM (active)

$$$$

// query Quick one: IC50 for CN(C)c1ccc(/C=C/C=C2/C(=O)NC(=O)N(c3ccccc3)C2=O)cc1 ?
// result 19.6 µM (active)

// query Again, but for O=C(/C=C/c1ccccc1Cl)Nc1ccc2c(c1)C(=O)NC2=O
// result 61.6 µM (active)

Data origin, for the record: ChEMBL document CHEMBL1201862
